Measured property: melting point

Query string: Please give measured melting point of the following entry: `COc1ccc(NC(=O)c2ccccc2N)c(OC)c1`
Result string: 154 to 156 °C

Query string: Please give measured melting point of the following entry: `O=C(O)CSc1nccs1`
Result string: 151 to 153 °C

Query string: Please give measured melting point of the following entry: `CCS(=O)(=O)N(C)CC(=O)O`
Result string: 70 to 72 °C

Query string: Please give measured melting point of the following entry: `CC(C)C(=O)NC1(C#N)CCCC1`
Result string: 56 to 58 °C

Query string: Please give measured melting point of the following entry: `O=C1CCOc2c(Cl)ccc(Cl)c21`
Result string: 67 to 69 °C

Query string: Please give measured melting point of the following entry: `O=C(c1c(F)cccc1F)N1CCNCC1`
Result string: 111 to 113 °C

Query string: Please give measured melting point of the following entry: `O=C(O)c1ccc(NC2CC2)nc1`
Result string: 178 to 180 °C

Query string: Please give measured melting point of the following entry: `CC(C)(C)c1ccc(C(C)(C)C(=O)O)cc1`
Result string: 165 to 167 °C

Query string: Please give measured melting point of the following entry: `CC(C)CN1CCC(C(=O)O)CC1`
Result string: 75 to 77 °C

Query string: Please give measured melting point of the following entry: `CC(=O)c1cc(F)ccc1-n1ccnc1`
Result string: 182 to 184 °C

Query string: Please give measured melting point of the following entry: `O=[N+]([O-])c1cc(S(=O)(=O)Cl)c(Br)cc1F`
Result string: 80 to 82 °C

The values you see were collected from a melting point compilation (Tetko et al.).
